- EXPERIMENTAL TARGET: AMP-activated protein kinase, AMPK (Homo sapiens) (UniProt P54646+O43741+P54619+Q9UGJ0+Q9Y478+Q13131+Q9UGI9)
- PROTOCOL DESCRIPTION: AMP-dependent Kinase enzyme assay. An in vitro enzyme assay that detects ADP turnover that is directly proportional to AMPK activity. This uses naive AMPK that is activated during the assay with MK-8722
- Format: functional
- Design: scale not given: direction of the effect not stated beside the values
- CONDITION CONTEXT: 30 µM
Provide the reported Percent Effect of each item.
Respond with the bare value in %.

In: # input compound: CCSCCC(=O)Nc1ncn(Cc2cccnc2)n1 ; wanted: its Percent Effect
Out: -3.63

In: Param item: NC(=O)COc1cccc(C(=O)Nc2cnc3n2CCCC3)c1
Out: -7.99

In: Param item: CC1CN(CC(=O)Nc2nncs2)CCN1c1nccs1 (stereo not given)
Out: -4.77

In: Param item: O=C(c1ccc2c(c1)COC2)N1CCN(CC2CC2)CC1
Out: -1.47

In: Param item: CCS(=O)(=O)NC[C@]12COC[C@H]1CN(Cc1cccc(OC)c1)C2
Out: 2.37

In: Param item: Cc1ccc(C)c(-c2csc(N)c2C#N)c1
Out: -2.97

In: Param item: Cc1ccc([C@@H]2CN(S(=O)(=O)c3cccs3)C[C@H]2N(C)C)cc1
Out: -3.82

In: Param item: CNS(=O)(=O)c1ccc(CNC(=O)NCC2CCCO2)cc1 (stereo not given)
Out: 16.9

In: Param item: CCc1nccc(CN2CCCC(c3nn(C)c(=O)n3CC)C2)n1 (stereo not given)
Out: -2.62

In: Param item: CC(=O)N1CC[C@H]2OCC[C@@]2(C(=O)NCc2ccco2)C1
Out: -0.449

In: Param item: CCN1CCC(CNCc2cc(OC)ccc2OC)C1 (stereo not given)
Out: -0.832

In: Param item: CC(C)C(=O)NC1CCN(Cc2cccc3c2OCCO3)CC1
Out: 4.8

In: Param item: O=c1ccc2c(n1CCN1CCCC1)CCN(Cc1ccoc1)CC2
Out: -4.13

In: Param item: CCc1csc(C2CCCN(C(=O)c3ccnc(N(C)C)c3)C2)n1 (stereo not given)
Out: 0.891

In: Param item: Cc1cc(C(C)NC(=O)N2CCC(n3cncn3)CC2)c(C)s1 (stereo not given)
Out: -0.225

In: Param item: CCn1cc(NC(=O)NCC(O)COc2cccc(F)c2)cn1 (stereo not given)
Out: -3.12

In: Param item: Cc1c(NC(=O)NCC(C)N2CCOCC2)cccc1OC(F)F (stereo not given)
Out: 0.188

In: Param item: CCc1n[nH]c(C2CN(C(=O)Cn3ccccc3=O)CCO2)n1 (stereo not given)
Out: -10.9

In: Param item: FC1(F)CCN(Cc2ccncc2)CC12CCN(Cc1ccccn1)C2 (stereo not given)
Out: -0.894

In: Param item: O=C(c1cccn1Cc1cccs1)N1CCCC1Cn1cccn1 (stereo not given)
Out: -2.11

In: Param item: Cc1nn(C)c(C)c1C1CCCN1Cc1noc(C2CC2)n1 (stereo not given)
Out: -5.38

In: Param item: c1cnc(-c2cnc(N3CCSCC3)nc2C2CCCO2)cn1 (stereo not given)
Out: 9.87

In: Param item: Cc1ccccc1C(=O)Nc1cnn(CC(=O)NC2CCCC2)c1
Out: -22.8

In: Param item: CN(C)S(=O)(=O)N1CCC(Oc2ccccn2)CC1
Out: 2.73

In: Param item: Cc1nc(CN2CCC3(CCCN(Cc4cnn(C)c4)C3)C2=O)cs1 (stereo not given)
Out: -6.96

Provenance of the data: ChEMBL document CHEMBL3988442
